tested on: 3T3-L1; assay: Increase in triglyceride levels in mouse 3T3L1 cells at 10 uM; format: functional
Field: Activity. Provide a value for each of the molecules that follow.
Report the figure in % without appending any unit label.

Problem: Provide only the value of recorded Activity for O=c1oc(-c2ccc(O)c(O)c2)cc2cccc(O)c12
Result: 19.6

Problem: Provide only the value of recorded Activity for COc1ccc([C@H]2Cc3cccc(O)c3C(=O)O2)cc1O
Result: 9.8

Problem: Provide only the value of recorded Activity for COc1ccc([C@H]2Cc3cccc(O[C@@H]4O[C@H](CO)[C@@H](O)[C@H](O)[C@H]4O)c3C(=O)O2)cc1O
Result: -1.5

Problem: Provide only the value of recorded Activity for Cc1c(C)c2c(c(C)c1O)CCC(C)(COc1ccc(CC3SC(=O)NC3=O)cc1)O2 (stereo not drawn)
Result: 39.6

Problem: Provide only the value of recorded Activity for COc1ccc([C@H]2Cc3cc(O)cc(O)c3C(=O)O2)cc1O
Result: -8

Problem: Provide only the value of recorded Activity for O=C1OC(c2ccc(O)c(O)c2)Cc2cc(O)cc(O)c21 (stereo not drawn)
Result: -0.8

Problem: Provide only the value of recorded Activity for O=C1OC(c2ccc(O)cc2)Cc2cccc(O[C@@H]3O[C@H](CO)[C@@H](O)[C@H](O)[C@H]3O)c21 (stereo partly drawn)
Result: 1.2

Problem: Provide only the value of recorded Activity for O=C1OC(c2ccc(O)cc2)Cc2cc(O)cc(O)c21 (stereo not drawn)
Result: -11.1
